tested on: Plasmodium berghei; experiment: Luciferase/luciferin-expressing antifolate-resistant parasites were used to infect a culture of HepG2 cells that were pre-incubated with compounds. Infected hepatocytes emit light due to the luciferase reaction. Assay results are presented as the percent inhibition of light emission compared to control. […]; format: functional; details: sporozoite, HEPG2TOX_HILL_SLOPE 8.29, HEPG2TOX_R_SQUARED 0.881, read-out: LUCIFERASE INFECTION ASSAY - IC50
pIC50: −log10 of the molar value.
property-label: pIC50

compound="COc1ccccc1NC(=O)C(C)OC(=O)c1ccc(NS(=O)(=O)c2ccc(Cl)c(Cl)c2)cc1 (stereo unspecified)" property_label=pIC50 result="< 5.00"

----------
Form field: IC90 (one value per entry).
system: Plasmodium berghei; assay: Luciferase/luciferin-expressing antifolate-resistant parasites were used to infect a culture of HepG2 cells that were pre-incubated with compounds. Infected hepatocytes emit light due to the luciferase reaction. Assay results are presented as the percent inhibition of light emission compared to control. […]; format: functional; details: sporozoite, read-out: LUCIFERASE INFECTION ASSAY - IC90
property-label: IC90 (µM)

compound_structure_string=Cn1c2ccccc2c(=O)c2c(=O)n(CCc3ccccc3)c(-c3ccco3)nc21 relation_sign== numeric_readout=5.38
compound_structure_string=Cc1ccc(COC(=O)c2cccc3c(=O)c(C)c(-c4ccccc4)oc23)cc1 relation_sign=> numeric_readout=10
compound_structure_string=c1ccc2c(c1)[nH]c1nc(SCc3cn4ccsc4n3)nnc12 relation_sign== numeric_readout=1.85
compound_structure_string=CC(C)(C)NC(=S)N/N=C/c1ccnc(SCc2ccc(Cl)cc2)n1 relation_sign=> numeric_readout=8.38
compound_structure_string=CCN1C/C(=C/c2cc(Cl)c(OC(C)C)c(OC)c2)C(=O)/C(=C/c2cc(Cl)c(OC(C)C)c(OC)c2)C1 relation_sign== numeric_readout=3.46

----------
system: Plasmodium berghei; assay: Luciferase/luciferin-expressing antifolate-resistant parasites were used to infect a culture of HepG2 cells that were pre-incubated with compounds. Infected hepatocytes emit light due to the luciferase reaction. Assay results are presented as the percent inhibition of light emission compared to control. […]; assay type: functional; details: sporozoite, FFLUC_HILL_SLOPE 2.09, FFLUC_R_SQUARED 0.761, HEPG2TOX_HILL_SLOPE 2.29, HEPG2TOX_R_SQUARED 0.839, PBLUC_HILL_SLOPE 16.1, PBLUC_R_SQUARED 0.248, read-out: LUCIFERASE INFECTION ASSAY - IC50
property-label: IC50 (µM)

compound_structure_string=C=CCN(c1ccccc1)S(=O)(=O)c1ccc(Cl)c(C(=O)Nc2ccc(N(c3ccccc3)C(C)C)cc2)c1 unit_info=µM numeric_readout=7.29

----------
test system: Plasmodium berghei; experiment: Luciferase/luciferin-expressing antifolate-resistant parasites were used to infect a culture of HepG2 cells that were pre-incubated with compounds. Infected hepatocytes emit light due to the luciferase reaction. Assay results are presented as the percent inhibition of light emission compared to control. […]; format: functional; conditions: sporozoite, PBLUC_HILL_SLOPE 13, PBLUC_R_SQUARED 0.117, read-out: LUCIFERASE INFECTION ASSAY - IC50
property-label: IC50 (µM)

compound="Cc1nn(C)c(C)c1NC(=O)C(C)Sc1nnc(Nc2ccc(Oc3ccccc3)cc2)s1 (stereo unspecified)" target_entity="Plasmodium berghei" unit_info=µM numeric_readout=8.97

----------
system: Plasmodium berghei; experiment: Luciferase/luciferin-expressing antifolate-resistant parasites were used to infect a culture of HepG2 cells that were pre-incubated with compounds. Infected hepatocytes emit light due to the luciferase reaction. Assay results are presented as the percent inhibition of light emission compared to control. […]; assay type: functional; details: sporozoite, HEPG2TOX_HILL_SLOPE 8.02, HEPG2TOX_R_SQUARED 0.493, PBLUC_HILL_SLOPE 1.32, PBLUC_R_SQUARED 0.475, read-out: LUCIFERASE INFECTION ASSAY - IC50
pIC50: −log10 of the molar value.
property-label: pIC50

compound_structure_string=CC(C)c1ccc(Nc2nccc3nc(-c4cccc(C(F)(F)F)c4)[nH]c23)cc1 numeric_readout=5.39

----------
system: Plasmodium berghei; assay: Luciferase/luciferin-expressing antifolate-resistant parasites were used to infect a culture of HepG2 cells that were pre-incubated with compounds. Infected hepatocytes emit light due to the luciferase reaction. Assay results are presented as the percent inhibition of light emission compared to control. […]; format: functional; conditions: sporozoite, HEPG2TOX_HILL_SLOPE 5.53, HEPG2TOX_R_SQUARED 0.986, PBLUC_HILL_SLOPE 37.8, PBLUC_R_SQUARED 0.36, read-out: LUCIFERASE INFECTION ASSAY - IC50
property-label: IC50 (µM)

compound_structure_string=Oc1ccc(Cl)cc1/C=C/c1ccc2cccc(O)c2n1 numeric_readout=6.35

----------
tested on: Plasmodium berghei; experiment: Luciferase/luciferin-expressing antifolate-resistant parasites were used to infect a culture of HepG2 cells that were pre-incubated with compounds. Infected hepatocytes emit light due to the luciferase reaction. Assay results are presented as the percent inhibition of light emission compared to control. […]; type: functional; conditions: sporozoite, HEPG2TOX_HILL_SLOPE 4.19, HEPG2TOX_R_SQUARED 0.978, PBLUC_HILL_SLOPE 3.44, PBLUC_R_SQUARED 0.808, read-out: LUCIFERASE INFECTION ASSAY - IC50
pIC50: −log10 of the molar value.
property-label: pIC50

compound_structure_string=O=C1C(Cl)=C(OC(CO)CO)C(=O)c2ccccc21 numeric_readout=6.11

----------
test system: Plasmodium berghei; test: Luciferase/luciferin-expressing antifolate-resistant parasites were used to infect a culture of HepG2 cells that were pre-incubated with compounds. Infected hepatocytes emit light due to the luciferase reaction. Assay results are presented as the percent inhibition of light emission compared to control. […]; assay type: functional; conditions: sporozoite, FFLUC_HILL_SLOPE 10.3, FFLUC_R_SQUARED 0.0303, PBLUC_HILL_SLOPE 13.4, PBLUC_R_SQUARED 0.215, read-out: LUCIFERASE INFECTION ASSAY - IC50
property-label: IC50

compound_structure_string=O=S(=O)(Nc1ccc(Cl)cc1)c1cc(NC(=S)Nc2ccc(Oc3ccccc3)cc2)ccc1N1CCCCC1 result="> 10 µM"

----------
test system: Plasmodium berghei; test: Luciferase/luciferin-expressing antifolate-resistant parasites were used to infect a culture of HepG2 cells that were pre-incubated with compounds. Infected hepatocytes emit light due to the luciferase reaction. Assay results are presented as the percent inhibition of light emission compared to control. […]; assay type: functional; conditions: sporozoite, read-out: LUCIFERASE INFECTION ASSAY - IC90
Reported IC90 values follow for various compounds
property-label: IC90

compound=CCOc1ccc(C(C)=O)cc1Cn1cnc2c(cnn2-c2ccccc2)c1=O property_label=IC90 result="> 10 µM"
compound="CCOC(=O)c1nnsc1[S+]([O-])c1ccc(Cl)cc1 (stereo not given)" property_label=IC90 result="> 10.4 µM"
compound=Cc1sc2ncnc(N/N=C/c3cn(-c4ccccc4)nc3-c3ccc4c(c3)OCCO4)c2c1C property_label=IC90 result="3.63 µM"
compound=Cc1cc(C(=O)CSc2nc3ccccc3[nH]2)c(C)n1-c1ccc(F)cc1 property_label=IC90 result="0.513 µM"
compound=COCOc1ccc(-c2cc(-c3cccc(NC(C)=O)c3)cnc2N)cc1 property_label=IC90 result="5.97 µM"

----------
test system: Plasmodium berghei; assay: Luciferase/luciferin-expressing antifolate-resistant parasites were used to infect a culture of HepG2 cells that were pre-incubated with compounds. Infected hepatocytes emit light due to the luciferase reaction. Assay results are presented as the percent inhibition of light emission compared to control. […]; type: functional; conditions: sporozoite, HEPG2TOX_HILL_SLOPE 10.6, HEPG2TOX_R_SQUARED 0.947, PBLUC_HILL_SLOPE 2.4, PBLUC_R_SQUARED 0.787, read-out: LUCIFERASE INFECTION ASSAY - IC50
pIC50: −log10 of the molar value.
property-label: pIC50

compound_structure_string=Fc1ccc(CNc2ncnc3ccc(Cl)cc23)cc1 target_entity="Plasmodium berghei" property_label=pIC50 numeric_readout=5.42

----------
IC90 for assorted molecules
tested on: Plasmodium berghei; assay: Luciferase/luciferin-expressing antifolate-resistant parasites were used to infect a culture of HepG2 cells that were pre-incubated with compounds. Infected hepatocytes emit light due to the luciferase reaction. Assay results are presented as the percent inhibition of light emission compared to control. […]; type: functional; conditions: sporozoite, read-out: LUCIFERASE INFECTION ASSAY - IC90
property-label: IC90 (µM)

molecule=COc1cccc(Nc2nccc3c2cc(-c2cccc(OC)c2)n3C)c1 unit_info=µM relation_sign=> numeric_readout=10
molecule=C=CCNC(=S)N/N=C/C1=C(N2CCOCC2)C(=C/c2ccc(Cl)cc2Cl)/CC1 unit_info=µM relation_sign=> numeric_readout=10
molecule=CS(=O)(=O)c1ccc(C(=O)Nc2ccc(S(=O)(=O)NCc3ccco3)cc2)cc1[N+](=O)[O-] unit_info=µM relation_sign=> numeric_readout=10
molecule="Cc1[nH]c2ccccc2c1C(=O)C(C)Sc1ccc2c(c1)OCCCO2 (stereo unspecified)" unit_info=µM relation_sign=> numeric_readout=10
molecule=CCCCc1c(O)cc2n(c1=O)-c1ccc(Cl)cc1C2(C)C unit_info=µM relation_sign=> numeric_readout=10.4
molecule="COC(=O)c1ccc(S(=O)(=O)N2c3ccccc3CCC2C)cc1 (stereo unspecified)" unit_info=µM relation_sign=> numeric_readout=10
molecule="CC(C)NC(=O)N1CCCC(C(=O)Nc2nc3ccccc3[nH]2)C1 (stereo unspecified)" unit_info=µM relation_sign== numeric_readout=4
molecule=O=C(Nc1cccc(F)c1)Nc1ccc2nc(Cc3ccccc3)nn2c1 unit_info=µM relation_sign== numeric_readout=1.35
molecule=CCOc1cccc(-c2cn3c(-c4cccc(CO)c4)cnc3cn2)c1 unit_info=µM relation_sign=> numeric_readout=9.55
molecule="CC(C)(C)N1C(=O)CC(=O)CC1c1ccc(Cl)cc1 (stereo unspecified)" unit_info=µM relation_sign== numeric_readout=11.1
molecule="Cc1cc(C(=O)COC(=O)c2ccccc2N/C=C/C(=O)C(F)(F)F)c(C)n1CC1CCCO1 (stereo unspecified)" unit_info=µM relation_sign=> numeric_readout=10
molecule=Clc1ccc(Sc2ncnc3ccsc23)cc1 unit_info=µM relation_sign== numeric_readout=9.97
molecule="O=C(CN1CCn2cccc2C1c1ccccc1)N1CCc2sccc2C1 (stereo unspecified)" unit_info=µM relation_sign== numeric_readout=4.34
molecule=CC(C)=CCn1c2ccc(NC(=O)OCCF)cc2c(=O)n1C unit_info=µM relation_sign=> numeric_readout=10.3
molecule=c1ccc(-c2cc(-c3ccc(NC4=NCCCS4)cc3)nc3ccccc23)cc1 unit_info=µM relation_sign== numeric_readout=9.46
molecule=CC(=O)Nc1ccc(-c2cnc3ccc(-c4cccnc4)nn23)cc1 unit_info=µM relation_sign== numeric_readout=1.22
molecule="CCOc1ccc2nc(NC(=O)C3Cc4ccccc4CN3S(=O)(=O)c3ccc(C)cc3)sc2c1 (stereo unspecified)" unit_info=µM relation_sign=> numeric_readout=10
molecule=Cc1nn(-c2cccc(C(F)(F)F)c2)c2sc(C(=O)NC(=S)N(C)C3CCCCC3)cc12 unit_info=µM relation_sign== numeric_readout=1.27
molecule=CN(C)CCNC(=O)c1ccc(-c2cn3c(-c4ccc(N(C)C)cc4)cnc3cn2)cc1 unit_info=µM relation_sign=> numeric_readout=7.7
molecule=COCCN(Cc1nc(=O)c2ccccc2[nH]1)C(=O)c1cc(C(C)(C)C)cc(C(C)(C)C)c1O unit_info=µM relation_sign=> numeric_readout=10
molecule=COc1ccc(Nc2nccc3c2cc(-c2cccc(OC)c2)n3C)cc1 unit_info=µM relation_sign== numeric_readout=8.15
